Cited source: patent US7094909B2

Recorded melting point by entry
METRIC: melting point

| COMPOUND | TEST_RESULT |
| --- | --- |
| Cc1c(O)cccc1C(=O)N[C@@H](Cc1ccccc1)[C@H](O)C(=O)N1CSC(C)(C)[C@H]1C(=O)N[C@H]1CCCc2ccccc21 | 125 to 126 °C |
| Cc1c(O)cccc1C(=O)N[C@@H](Cc1ccccc1)[C@H](O)C(=O)N1CSC(C)(C)[C@H]1C(=O)N[C@@H]1CCCc2ccccc21 | 123 to 125 °C |
| Cc1cccc(C)c1OCC(=O)N[C@@H](Cc1ccccc1)[C@H](O)C(=O)N1CSC(C)(C)[C@H]1C(=O)N[C@H]1CCOc2ccccc21 | 105 to 107 °C |
| COc1cccc(CNC(=O)[C@H]2N(C(=O)[C@@H](O)C(Cc3ccccc3)NC(=O)c3cccc(O)c3C)CSC2(C)C)c1 (single isomer, unassigned) | 108 to 110 °C |
| Cc1c(O)cccc1C(=O)N[C@@H](Cc1ccccc1)[C@H](O)C(=O)N1CSC(C)(C)[C@H]1C(=O)N[C@@H]1CCc2ccccc21 | 128 to 130 °C |
| Cc1c(O)cccc1C(=O)N[C@@H](Cc1ccccc1)[C@H](O)C(=O)N1CSC(C)(C)[C@H]1C(=O)N[C@H]1CCOc2ccccc21 | 135 to 136 °C |
| Cc1c(O)cccc1C(=O)N[C@@H](Cc1ccccc1)[C@H](O)C(=O)N1CSC(C)(C)[C@H]1C(=O)N[C@H]1C=CCCC1 | 193 to 195 °C |
| Cc1c(O)cccc1C(=O)N[C@@H](Cc1ccccc1)[C@H](O)C(=O)N1CSC(C)(C)[C@H]1C(=O)N[C@@H]1CCSc2ccccc21 | 125 to 127 °C |
| Cc1c(O)cccc1C(=O)N[C@@H](Cc1ccccc1)[C@H](O)C(=O)N1CSC(C)(C)[C@H]1C(=O)N[C@@H]1CCOc2ccccc21 | 135 to 136 °C |

----------
Recorded Ki by entry
Target: HIV-1 protease (Q7S mutant form) (Human immunodeficiency virus type 1 group M subtype B, UniProt P04585, Q495S)
Construct: made in house
Test: HIV-1 Protease RET assay
Format: biochemical
Conditions: Ave. Ki (nM), RET assay, Q7S enzyme, Morrison tight binding fit
METRIC: Ki (nM)

| COMPOUND | METRIC | LIMIT_QUALIFIER | TEST_RESULT |
| --- | --- | --- | --- |
| Cc1ccccc1CNC(=O)[C@@H]1CC(F)(F)CN1C(=O)[C@@H](O)[C@H](Cc1ccccc1)NC(=O)c1c(C)noc1C [Example C43] | Ki | = | 21 |
| Cc1c(O)cccc1C(=O)N[C@@H](Cc1ccccc1)[C@H](O)C(=O)N1CC(F)(F)C[C@H]1C(=O)N[C@H]1CCCc2ccccc21 [Example C3] | Ki | = | 0.16 |
| Cc1c(O)cccc1C(=O)N[C@@H](Cc1ccccc1)[C@H](O)C(=O)N1CC(F)(F)C(C)(C)[C@H]1C(=O)NCc1ccc(F)cc1Cl [Example C18] | Ki | < | 0.1 |

----------
Molecular target: HIV-1 protease (Q7S mutant form) (Human immunodeficiency virus type 1 group M subtype B, UniProt P04585, Q495S)
Construct: made in house
Experiment: HIV-1 Protease RET assay
Format: biochemical
Details: Ave. Ki (nM), RET assay, Q7S enzyme, Morrison tight binding fit
Recorded Ki by entry

| MOLECULE | Ki |
| --- | --- |
| Cc1c(O)cccc1C(=O)N[C@@H](Cc1ccccc1)[C@H](O)C(=O)N1CC(F)(F)C[C@H]1C(=O)N[C@@H]1C=CCCC1 [Example C4] | 0.17 nM |
| Cc1ccccc1CNC(=O)[C@H]1N(C(=O)[C@@H](O)[C@H](Cc2ccccc2)NC(=O)Nc2cccc(F)c2)CSC1(C)C [Example B55] | 679 nM |
| Cc1ccncc1CNC(=O)[C@H]1N(C(=O)[C@@H](O)[C@H](Cc2ccccc2)NC(=O)c2cccc(O)c2C)CSC1(C)C [Example A22] | < 0.1 nM |
| Cc1ccccc1CNC(=O)[C@H]1N(C(=O)[C@@H](O)[C@H](Cc2ccccc2)NC(=O)c2cccc(O)c2C)CSC12CCCC2 [Example C30] | < 0.1 nM |
| Cc1c(O)cccc1C(=O)N[C@@H](Cc1ccccc1)[C@H](O)C(=O)N1CSC(C)(C)[C@H]1C(=O)NCc1ccoc1 [Example A45] | < 0.1 nM |
| Cc1cnccc1CNC(=O)[C@H]1N(C(=O)[C@@H](O)[C@H](Cc2ccccc2)NC(=O)c2cccc(O)c2C)CSC1(C)C [Example A10] | < 0.1 nM |

----------
| STRUCTURE_NOTATION | melting point |
| --- | --- |
| CC1(C)SCN(C(=O)[C@@H](O)[C@H](Cc2ccccc2)NC(=O)O[C@H]2CCOC2)[C@@H]1C(=O)N[C@H]1CCCc2ccccc21 | 103 to 105 °C |
| Cc1c(O)cccc1C(=O)N[C@@H](Cc1ccccc1)[C@H](O)C(=O)N1CSC(C)(C)[C@H]1C(=O)N[C@@H]1C=CCCC1 | 177 to 179 °C |
| Cc1c(O)cccc1C(=O)N[C@@H](Cc1ccccc1)[C@H](O)C(=O)N1CSC(C)(C)[C@H]1C(=O)NC[C@H]1CCCO1 | 105 to 107 °C |

----------
Target: HIV-1 protease (Q7S mutant form) (Human immunodeficiency virus type 1 group M subtype B, UniProt P04585, Q495S)
Construct: made in house
Assay: HIV-1 Protease RET assay
Format: biochemical
Conditions: Ave. Ki (nM), RET assay, Q7S enzyme, Morrison tight binding fit
Recorded Ki by entry

| STRUCTURE_NOTATION | READING_UNIT | Ki |
| --- | --- | --- |
| Cc1c(O)cccc1C(=O)N[C@@H](Cc1ccccc1)[C@H](O)C(=O)N1CSC(C)(C)[C@H]1C(=O)NCc1cccs1 | nM | 2.6 |
| C#CCNC(=O)[C@H]1N(C(=O)[C@@H](O)[C@H](Cc2ccccc2)NC(=O)c2cccc3c2CCN3)CSC1(C)C | nM | 1.2 |
| Cc1ccccc1CNC(=O)[C@H]1N(C(=O)[C@@H](O)[C@H](Cc2ccccc2)NC(=O)c2cccc3[nH]ncc23)CSC1(C)C | nM | 1.1 |

----------
System: HIV-1 (HIV-1 RF, HIV-1 NL4-3) in CEM-SS / MT-2 cells
Assay: Cytopathic effect (CPE) inhibition assay (XTT/MTT dye reduction)
Assay type: cell-based
Settings: Human immunodeficiency virus 1, NL43, unit inferred; read-out: EC50
pEC50: −log10 of the molar value.
METRIC: pEC50

| MOLECULE | LIMIT_QUALIFIER | TEST_RESULT |
| --- | --- | --- |
| Cc1ccccc1CNC(=O)[C@H]1N(C(=O)[C@@H](O)[C@H](Cc2ccccc2)NC(=O)CBr)CSC1(C)C | ≤ | 6.00 |
| CC1(C)SCN(C(=O)[C@@H](O)[C@H](Cc2ccccc2)NC(=O)[C@@H]2CCCO2)[C@@H]1C(=O)N[C@H]1CCCc2ccccc21 | = | 5.93 |
| Cc1ccccc1CNC(=O)[C@H]1N(C(=O)[C@@H](O)[C@H](Cc2ccccc2)NC(=O)OC(C)(C)C)CSC1(C)C | = | 5.89 |
| Cc1ccccc1CNC(=O)C1N(C(=O)[C@@H](O)[C@H](Cc2ccccc2)NC(=O)CSc2nncn2C)CSC1(C)C (stereo partly drawn) | ≤ | 5.49 |
| CCCCOC(=O)N[C@@H](Cc1ccccc1)[C@H](O)C(=O)N1CSC(C)(C)C1C(=O)NCc1ccccc1C (stereo partly drawn) | = | 5.76 |
| CC1(C)SCN(C(=O)[C@@H](O)[C@H](Cc2ccccc2)NC(=O)O[C@H]2CCOC2)[C@@H]1C(=O)N[C@@H]1CCOc2ccccc21 | = | 5.81 |
| Cc1ccccc1CNC(=O)[C@H]1N(C(=O)[C@@H](O)[C@H](Cc2ccccc2)NC(=O)OCCCl)CSC1(C)C | = | 5.84 |
| C=CC(C)COC(=O)NC(Cc1ccccc1)[C@H](O)C(=O)N1CSC(C)(C)C1C(=O)NCc1ccccc1C (stereo partly drawn) | ≤ | 5.49 |
| Cc1ccccc1CNC(=O)[C@@H]1CC(F)(F)CN1C(=O)[C@@H](O)[C@H](Cc1ccccc1)NC(=O)C1C(C)C(=O)ON1C (stereo partly drawn) | ≤ | 5.49 |
| C=CCNC(=O)[C@H]1N(C(=O)[C@@H](O)[C@H](Cc2ccccc2)NC(=O)[C@@H](NC(=O)c2ccc3ccccc3n2)C(C)C)CSC1(C)C | = | 7.39 |
| Cc1ccccc1CNC(=O)[C@H]1N(C(=O)[C@@H](O)[C@H](Cc2ccccc2)NC(=O)[C@@H](NC(=O)c2ccccn2)C(C)C)CSC1(C)C | = | 6.90 |
| CCN1CCc2c(C(=O)N[C@@H](Cc3ccccc3)[C@H](O)C(=O)N3CSC(C)(C)[C@H]3C(=O)NCc3ccccc3C)cccc21 | = | 6.00 |
| CC(=O)C(=O)N[C@@H](Cc1ccccc1)[C@H](O)C(=O)N1CSC(C)(C)[C@H]1C(=O)NCc1ccccc1C | ≤ | 6.00 |
| CCCOC(=O)N[C@@H](Cc1ccccc1)[C@H](O)C(=O)N1CSC(C)(C)[C@H]1C(=O)NCc1ccccc1C | = | 5.81 |
| Cc1ccccc1CNC(=O)[C@H]1N(C(=O)[C@@H](O)[C@H](Cc2ccccc2)NC(=O)C(F)(F)F)CSC1(C)C | = | 5.66 |
| Cc1ccccc1CNC(=O)C1N(C(=O)[C@@H](O)[C@H](Cc2ccccc2)NC(=O)CSc2nc3ccccc3[nH]2)CSC1(C)C (stereo partly drawn) | ≤ | 5.49 |
| Cc1ccccc1CNC(=O)[C@@H]1C[C@@H]2CCCC[C@@H]2CN1C[C@@H](O)[C@H](CSc1ccccc1)NC(=O)c1cccc(O)c1C | = | 6.05 |
| Cc1c(O)cccc1C(=O)N[C@@H](Cc1ccccc1)[C@H](O)C(=O)N1CSC(C)(C)[C@H]1C(=O)NC1CCC(C(C)(C)C)CC1 (stereo partly drawn) | = | 5.91 |
| CC1(C)SCN(C(=O)[C@@H](O)[C@H](Cc2ccccc2)NC(=O)CSc2nc[nH]n2)[C@@H]1C(=O)NCC#N | ≤ | 5.49 |
| Cc1ccccc1CNC(=O)[C@@H]1N(C(=O)[C@@H](O)[C@H](Cc2ccccc2)NC(=O)c2cccc(O)c2C)CSC12CCCC2 | = | 7.40 |
| Cc1ccc(C(=O)N[C@@H](Cc2ccccc2)[C@H](O)C(=O)N2CSC(C)(C)[C@H]2C(=O)NCc2cccs2)c(C)c1O | = | 6.48 |
| Cc1ccccc1CNC(=O)[C@H]1N(C(=O)[C@@H](O)[C@H](Cc2ccccc2)NC(=O)OC2CC3CCC2C3)CSC1(C)C (stereo partly drawn) | = | 5.54 |
| Cc1ccccc1CNC(=O)[C@@H]1CCCCN1C(=O)[C@@H](O)[C@H](Cc1ccccc1)NC(=O)c1cccc(O)c1C | = | 5.23 |
| Cc1cccc(C)c1OCC(=O)N[C@@H](Cc1ccccc1)[C@H](O)C(=O)N1CSC(C)(C)[C@H]1C(=O)NCc1ccccc1Cl | = | 5.81 |
| Cc1ccc(C(=O)N[C@@H](Cc2ccccc2)[C@H](O)C(=O)N2CSC(C)(C)[C@H]2C(=O)NCc2ccco2)c(C)c1O | = | 6.31 |
| Cc1ccccc1CNC(=O)[C@H]1N(C(=O)[C@@H](O)[C@H](Cc2ccccc2)NC(=O)COc2ccccc2C)CSC1(C)C | = | 5.81 |
| Cc1ccc(C(=O)N[C@@H](Cc2ccccc2)[C@H](O)C(=O)N2CSC(C)(C)C2C(=O)N[C@@H]2C=CCCC2)c(C)c1O (stereo partly drawn) | = | 5.94 |
